Cited source: PubChem BioAssay AID272

System: Lewis lung carcinoma i.m., BDF1 mice, T/C %
Test: NCI In Vivo Anticancer Drug Screen. Data for tumor model Lewis Lung Carcinoma (intramuscular) in B6D2F1 (BDF1) mice
Settings: endpoint: median survival time; dose: 32.0 mg/kg/injection; schedule: Q01DX009 (ip); vehicle: Klucel (hydroxypropylcellulose) (HPC)
Inconclusive results are not listed. The calls were made as follows: active = survival T/C of 150% or more; inactive = T/C below 125% in these data. Residues, ends and D or L forms follow the SMILES beside them. *: point of attachment. Trt = c1ccc(C(c2ccccc2)(c2ccccc2)*)cc1; Cbz = O=C(OCc1ccccc1)*; Bn = c1ccc(C*)cc1; βAla = NCCC(=O)O
Possible outcomes: label 1 = active, label 0 = inactive

[
  {
    "compound": "COC(=O)C(CSC(c1ccccc1)(c1ccccc1)c1ccccc1)NC(=O)C(CSCc1ccccc1)NC(C)=O (centres undefined) (Ac-Cys(Bn)-Cys(Trt)-OMe; configuration not given here)",
    "label class": "label 0"
  },
  {
    "compound": "COC(=O)C(CSC(c1ccccc1)(c1ccccc1)c1ccccc1)NC(=O)C(CSCc1ccccc1)NC(=O)CCNC(=O)OCc1ccccc1 (centres undefined) ({Cbz-βAla}-Cys(Bn)-Cys(Trt)-OMe; configuration not given here)",
    "label class": "label 1"
  },
  {
    "compound": "CC(C)NCC(O)COc1cccc2ccccc12 (centres undefined)",
    "label class": "label 0"
  },
  {
    "compound": "COC(=O)CC(OC)c1nc(C(=O)OC)c(C)c(=O)[nH]1 (centres undefined)",
    "label class": "label 0"
  }
]
